METHOD NOTES: Protein binding in human plasma assessed as free fraction
Assay type: ADME, cell-free
ENDPOINT LABEL: fraction unbound

The compound listed as CO[C@@H](CNC(=O)[C@H](NC(=O)[C@H](O)[C@H](C)O)[C@H](O)c1cncn1C)[C@H](O)[C@H](O)C(=O)N(C)[C@@H](Cc1ccccc1)C(=O)NCC(=O)N[C@H](C(=O)N[C@@H](CO)C(=O)N[C@H](C(=O)N[C@H](C(=O)N[C@@H](CC(=O)O)C(=O)N1CCC[C@H]1C(=O)NCc1cc(=O)c(O)cn1O)C(C)(C)C)C(C)(C)O)C(C)(C)O has a reported fraction unbound of 0.26
